Source: ChEMBL document CHEMBL4392822

Target: E. coli GroEL/ES (Escherichia coli);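 further: inhibition of E. coli GroEL/GroES-assisted refolding of denatured pig heart MDH, read out as recovered MDH activity on mesoxalate by malachite green absorbance after 20–40 min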
Sequence (P0A6F5 whole entry, looked up): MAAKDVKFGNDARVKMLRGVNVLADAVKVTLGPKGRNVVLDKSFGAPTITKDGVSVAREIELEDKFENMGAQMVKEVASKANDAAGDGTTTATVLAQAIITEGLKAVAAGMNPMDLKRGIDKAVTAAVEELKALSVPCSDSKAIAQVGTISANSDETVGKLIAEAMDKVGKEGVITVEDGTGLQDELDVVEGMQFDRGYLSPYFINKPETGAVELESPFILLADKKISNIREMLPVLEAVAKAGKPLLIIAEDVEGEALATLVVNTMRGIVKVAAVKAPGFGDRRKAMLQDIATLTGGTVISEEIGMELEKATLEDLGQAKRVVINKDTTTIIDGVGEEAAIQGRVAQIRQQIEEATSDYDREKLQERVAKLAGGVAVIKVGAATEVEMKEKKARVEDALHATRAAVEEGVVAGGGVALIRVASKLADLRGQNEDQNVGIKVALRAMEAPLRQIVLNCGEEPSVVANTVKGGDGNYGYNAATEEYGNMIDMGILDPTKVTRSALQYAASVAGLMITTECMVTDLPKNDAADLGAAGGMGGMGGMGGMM
Values of IC50 strictly less than 4 µM map to true (1), and values of at least 4 µM map to false (0).

[[record]]
compound = "CC(C)(C)NCC(O)c1ccc(O)c(CO)c1 (centres undefined)"
classification = "false (0)"


Req: Strictly below 4 µM in IC50? `O=c1c(O)c(-c2ccc(O)c(O)c2)oc2c(O)c(O)cc(O)c12`
Resp: true (1)

Req: And then O=C(/C=C/c1ccc(O)cc1)c1ccccc1 [4-HYDROXYCHALCONE] , what is it?
Resp: false (0)

Req: Next compound up: `CC(=O)O[C@H]1C(=O)[C@@]2(C)[C@H]([C@H](OC(=O)c3ccccc3)[C@]3(O)C[C@H](OC(=O)[C@H](O)[C@@H](NC(=O)c4ccccc4)c4ccccc4)C(C)=C1C3(C)C)[C@]1(OC(C)=O)CO[C@@H]1C[C@@H]2O`
Resp: false (0)

Req: Now this one: `Cc1cc(-c2ccc(/N=N/c3ccc4c(S(=O)(=O)O)cc(S(=O)(=O)O)c(N)c4c3O)c(C)c2)ccc1/N=N/c1ccc2c(S(=O)(=O)O)cc(S(=O)(=O)O)c(N)c2c1O`
Resp: true (1)

Req: Now give it for `O=c1c(O)c(-c2ccc(O)cc2O)oc2cc(O)cc(O)c12` too.
Resp: false (0)

Req: Do the same for `CC[C@H]1OC(=O)[C@H](C)[C@@H](O[C@H]2C[C@@](C)(OC)[C@@H](O)[C@H](C)O2)[C@H](C)[C@@H](O[C@@H]2O[C@H](C)C[C@H](N(C)C)[C@H]2O)[C@](C)(O)C[C@@H](C)C(=O)[C@H](C)[C@@H](O)[C@]1(C)O` please
Resp: false (0)

Req: // repeat for O=C(O[C@@H]1Cc2c(O)cc(O)cc2O[C@@H]1c1cc(O)c(O)c(O)c1)c1cc(O)c(O)c(O)c1 [EPIGALOCATECHIN GALLATE] and report
Resp: true (1)

Req: Another compound to check: `Oc1c(Cl)cc(Cl)cc1Sc1cc(Cl)cc(Cl)c1O`
Resp: false (0)

Req: CCCCCCCCCCCCCCCC(=O)OC[C@H](O)[C@H]1OC(=O)C(O)=C1O [ASCORBYL PALMITATE] , same question.
Resp: true (1)

Req: And what about the compound `CC1=CC(=O)c2c(O)cccc2C1=O` ?
Resp: true (1)

----------
Biological target: Thiosulfate sulfurtransferase (Homo sapiens, UniProt Q16762);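 further: native rhodanese of unspecified species, enzyme activity read after 45 min by spectrophotometric detection of Fe(SCN)3 colour, IC50 reflects activity reduction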
Sequence (Q16762 whole entry): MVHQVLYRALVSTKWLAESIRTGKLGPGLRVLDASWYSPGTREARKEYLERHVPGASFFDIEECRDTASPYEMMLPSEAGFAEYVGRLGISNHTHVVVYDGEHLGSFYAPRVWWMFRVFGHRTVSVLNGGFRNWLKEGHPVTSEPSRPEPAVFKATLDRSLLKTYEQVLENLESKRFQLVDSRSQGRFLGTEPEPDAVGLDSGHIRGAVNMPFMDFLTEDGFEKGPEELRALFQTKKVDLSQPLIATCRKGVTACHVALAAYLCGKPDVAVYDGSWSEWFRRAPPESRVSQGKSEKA
Where a name gives a salt, the structure may show the parent alone.
Recorded endpoint: IC50

[[record]]
compound = "CC(COc1ccccc1)N(CCCl)Cc1ccccc1 (stereo not drawn) [PHENOXYBENZAMINE HYDROCHLORIDE]"
recorded_endpoint = "IC50"
observed_measurement = "> 100 µM"

[[record]]
compound = "C[C@H](CCC(=O)O)[C@H]1CC[C@H]2[C@@H]3CC[C@@H]4C[C@H](O)CC[C@]4(C)[C@H]3CC[C@]12C"
recorded_endpoint = "IC50"
observed_measurement = "> 100 µM"


Next compound, IC50 to be filled in.
Req: Report IC50 for `CCOc1nc2cccc(C(=O)O)c2n1Cc1ccc(-c2ccccc2-c2nnn[nH]2)cc1` please.
Resp: > 100 µM
